For each of the molecules below, state its mass density.
# assay-procedure: mn = molality of the nth substance listed, in mol/kg
# condition-label: 298.15 K; 101 kPa; Liquid; Vibrating tube method; m1 = 0.3
// return numeric value only (unit: kg/m3, not printed)

So for O=P([O-])(O)O.[K+] [monopotassium phosphate] + O , the logged mass density turned out to be 1026.44

So for O=P([O-])([O-])[O-].[K+].[K+].[K+] [tripotassium phosphate] + O , the logged mass density turned out to be 1057.82

So for O=P([O-])([O-])[O-].[Na+].[Na+].[Na+] [trisodium phosphate] + O , the logged mass density turned out to be 1052.41
